Tested on: Mycobacterium tuberculosis variant bovis BCG
Test: microbe, parasite or virus in culture
Assay type: functional
Catalogue of MIC90 readings, one per entry.
Please respond with the number in µM and leave the unit unwritten.

Would you please look over these solved cases?
{"columns": ["query smiles", "observed result"],
 "data": [
  ["COc1cc(CCN2CC[C@H](NC(=O)c3ccc(Cl)c(Cl)c3)C2)ccc1OC1CCNCC1", 7],
  ["Cc1cc(N)nc2cc(-c3ccc(CCN)cc3)ccc12", 9.5]
]}

Pending compound:
Form: compound = COc1ccccc1NC(=O)CN(Cc1ccco1)C(=O)c1cccc(-n2cnnn2)c1 ; MIC90 = 7.7

* * *

System: Mycobacterium tuberculosis variant bovis BCG
Assay: microbe, parasite or virus in culture
Type: functional
measured attribute: MIC90
The answer should read as a number with its unit following.

{"columns": ["molecule", "target of assay", "observed result"],
 "data": [
  ["O=S(=O)(CCNCC1CC1)c1cccc(Nc2ccc(-c3cccc(F)c3)cn2)c1", "Mycobacterium tuberculosis variant bovis BCG", "5.3 µM"],
  ["C=CCNCCS(=O)(=O)c1cccc(Nc2ncc(-c3ccc(OC)nc3)cn2)c1", "Mycobacterium tuberculosis variant bovis BCG", "3.6 µM"],
  ["CN(C)CCNCc1ccc(-c2cc(Cl)cc(Cl)c2)o1", "Mycobacterium tuberculosis variant bovis BCG", "2.7 µM"],
  ["Fc1ccccc1-c1noc(N2CCN(Cc3ccc4c(c3)OCO4)CC2)n1", "Mycobacterium tuberculosis variant bovis BCG", "6.7 µM"],
  ["CCN(Cc1ccc(Cl)s1)C(=O)CSc1nc(NC)c2ccccc2n1", "Mycobacterium tuberculosis variant bovis BCG", "9.1 µM"],
  ["Cc1c(Cl)ccc2sc(N(CCN(C)C)C(=O)c3ccc(S(C)(=O)=O)cc3)nc12", "Mycobacterium tuberculosis variant bovis BCG", "7 µM"],
  ["COc1cc(Cl)c(Cl)cc1C(=O)Nc1cccc2c1CCN(C)C2", "Mycobacterium tuberculosis variant bovis BCG", "4 µM"],
  ["O=C(Nc1nc(-c2ccccn2)cs1)c1ccc(-c2ccccc2F)o1", "Mycobacterium tuberculosis variant bovis BCG", "5.2 µM"]
]}

Form: molecule = Fc1cccc(-c2nc(NCC3COc4ccccc4O3)no2)c1F (stereo not given) ; MIC90 = 9.2 µM

Form: molecule = N#Cc1nc(-c2ccccc2)oc1S(=O)(=O)c1ccc(Cl)cc1 ; MIC90 = 3.6 µM
